- experimental-system: Androgen receptor (Homo sapiens)
Consider the following compounds and their measured pIC50 readings.
Would you please state pIC50, meaning minus log10 of the concentration in mol/L, as a bare number?

C[C@]12CCC(=O)C[C@@H]1C[C@@H](CCCCCCCCCC(=O)O)[C@@H]1[C@@H]2CC[C@]2(C)[C@@H](O)CC[C@@H]12; 6.04

## Input Fill: pIC50 (Androgen receptor (Homo sapiens)) for this compound C[C@]12CCC(=O)C=C1C[C@@H](CCCc1ccc(OCCCCC(=O)O)cc1)[C@@H]1[C@@H]2CC[C@@]2(C)[C@H]1CC[C@]2(C)O
## Output 6.52

====

Consider the following compounds and their measured IC50 readings.
- experimental-system: Androgen receptor (Homo sapiens)
- Sequence (P10275 whole entry): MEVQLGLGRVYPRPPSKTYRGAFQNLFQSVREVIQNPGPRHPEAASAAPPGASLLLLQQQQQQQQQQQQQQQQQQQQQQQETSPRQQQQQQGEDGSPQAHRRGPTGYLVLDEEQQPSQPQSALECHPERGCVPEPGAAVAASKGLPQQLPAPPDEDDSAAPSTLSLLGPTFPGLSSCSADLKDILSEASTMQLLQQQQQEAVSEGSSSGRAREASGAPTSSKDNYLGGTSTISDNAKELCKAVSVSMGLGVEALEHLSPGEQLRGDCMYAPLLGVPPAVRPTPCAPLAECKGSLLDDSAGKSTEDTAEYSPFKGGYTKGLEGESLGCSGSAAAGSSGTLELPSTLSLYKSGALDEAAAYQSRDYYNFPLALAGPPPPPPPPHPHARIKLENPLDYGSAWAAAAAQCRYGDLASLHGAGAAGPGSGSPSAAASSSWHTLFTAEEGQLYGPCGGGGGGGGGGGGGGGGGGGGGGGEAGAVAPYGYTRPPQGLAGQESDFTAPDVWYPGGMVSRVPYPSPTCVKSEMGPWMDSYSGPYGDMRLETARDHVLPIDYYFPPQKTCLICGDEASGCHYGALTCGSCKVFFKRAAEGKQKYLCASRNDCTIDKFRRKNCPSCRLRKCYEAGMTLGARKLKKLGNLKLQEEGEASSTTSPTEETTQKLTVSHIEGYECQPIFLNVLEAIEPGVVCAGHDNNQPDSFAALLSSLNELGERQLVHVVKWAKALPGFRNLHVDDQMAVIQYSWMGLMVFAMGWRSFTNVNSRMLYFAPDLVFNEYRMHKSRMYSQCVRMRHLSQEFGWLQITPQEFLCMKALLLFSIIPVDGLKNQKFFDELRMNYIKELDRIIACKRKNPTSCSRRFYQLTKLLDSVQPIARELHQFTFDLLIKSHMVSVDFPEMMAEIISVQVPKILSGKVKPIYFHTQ
Give a bare numeral; the unit nM is implied.

C[C@]12CCC(=O)C=C1C[C@@H](CCCc1ccc(OCCC(=O)O)cc1)[C@@H]1[C@@H]2CC[C@@]2(C)[C@H]1CC[C@]2(C)O; 170
C[C@]12CCC(=O)C=C1C[C@@H](CCCCc1ccc(OCCCC(=O)O)cc1)[C@@H]1[C@@H]2CC[C@@]2(C)[C@H]1CC[C@]2(C)O; 850
CN(C)C(=O)CCCCCCC[C@@H]1C[C@H]2CC(=O)CC[C@]2(C)[C@H]2CC[C@]3(C)[C@@H](O)CC[C@H]3[C@H]12; 190
C[C@]12CCC(=O)C=C1C[C@@H](CCCCCCCCCC(=O)O)[C@@H]1[C@@H]2CC[C@@]2(C)[C@H]1CC[C@]2(C)O; 2000
C[C@]12CCC(=O)C=C1C[C@@H](CCCCc1cccc(OCCCCCC(=O)O)c1)[C@@H]1[C@@H]2CC[C@@]2(C)[C@H]1CC[C@]2(C)O; 530

## Input Provide measured IC50 value, entry: C[C@]12CCC(=O)C[C@@H]1C[C@@H](CCCCCCCC(=O)O)[C@@H]1[C@@H]2CC[C@]2(C)[C@@H](O)CC[C@@H]12
## Output 730
